Data origin: patent US20240382629A1

experimentalDetails: PET imaging and biodistribution in SK-MEL-24 tumor-bearing mice
Type: in vivo, mouse
statedConditions: mouse, small intestine, intravenous; SK-MEL-24 in NSG mice; 20 μCi; 4 h; n=4; read-out: Biodistribution: Sm in
recordedMetric: tissue uptake at 4 h (%ID/g)
Write the number in %ID/g without appending the unit.

Ask: Kindly indicate its recorded tissue uptake at 4 h. Item: N#C[C@@H]1CCCN1C(=O)CNC(=O)c1ccnc2ccc(OCCCNC(=O)CCc3cn(CCOCCOCCOCCOCCOCCOCCC(=O)N[C@@H](CCCCNC(=O)CN4CCN(CC(=O)O)CCN(CC(=O)O)CC4)C(=O)NCCCCC(=O)N(CCCC[C@H](NC(=O)N[C@@H](CCC(=O)O)C(=O)O)C(=O)O)Cc4ccc(Br)cc4)nn3)cc12
Reply: 3.54

====

experimentalDetails: PET imaging and biodistribution in SK-MEL-24 tumor-bearing mice
Assay type: in vivo, mouse
statedConditions: mouse, salivary gland, intravenous; SK-MEL-24 in NSG mice; 20 μCi; 1 h; n=3; read-out: Biodistribution: Sal gl
recordedMetric: tissue uptake at 1 h (%ID/g)
Write the number in %ID/g without appending the unit.

Ask: Kindly indicate its recorded tissue uptake at 1 h. Item: N#C[C@@H]1CCCN1C(=O)CNC(=O)c1ccnc2ccc(OCCCNC(=O)CCc3cn(CCOCCOCCOCCOCCOCCOCCC(=O)N[C@@H](CCCCNC(=O)CN4CCN(CC(=O)O)CCN(CC(=O)O)CC4)C(=O)NCCCCC(=O)N(CCCC[C@H](NC(=O)N[C@@H](CCC(=O)O)C(=O)O)C(=O)O)Cc4ccc(Br)cc4)nn3)cc12
Reply: 12.6

====

The following molecules are listed with their measured IC50 values.
targetSystem: FAP (Homo sapiens (Human), UniProt Q12884)
Sequence (Q12884 whole entry): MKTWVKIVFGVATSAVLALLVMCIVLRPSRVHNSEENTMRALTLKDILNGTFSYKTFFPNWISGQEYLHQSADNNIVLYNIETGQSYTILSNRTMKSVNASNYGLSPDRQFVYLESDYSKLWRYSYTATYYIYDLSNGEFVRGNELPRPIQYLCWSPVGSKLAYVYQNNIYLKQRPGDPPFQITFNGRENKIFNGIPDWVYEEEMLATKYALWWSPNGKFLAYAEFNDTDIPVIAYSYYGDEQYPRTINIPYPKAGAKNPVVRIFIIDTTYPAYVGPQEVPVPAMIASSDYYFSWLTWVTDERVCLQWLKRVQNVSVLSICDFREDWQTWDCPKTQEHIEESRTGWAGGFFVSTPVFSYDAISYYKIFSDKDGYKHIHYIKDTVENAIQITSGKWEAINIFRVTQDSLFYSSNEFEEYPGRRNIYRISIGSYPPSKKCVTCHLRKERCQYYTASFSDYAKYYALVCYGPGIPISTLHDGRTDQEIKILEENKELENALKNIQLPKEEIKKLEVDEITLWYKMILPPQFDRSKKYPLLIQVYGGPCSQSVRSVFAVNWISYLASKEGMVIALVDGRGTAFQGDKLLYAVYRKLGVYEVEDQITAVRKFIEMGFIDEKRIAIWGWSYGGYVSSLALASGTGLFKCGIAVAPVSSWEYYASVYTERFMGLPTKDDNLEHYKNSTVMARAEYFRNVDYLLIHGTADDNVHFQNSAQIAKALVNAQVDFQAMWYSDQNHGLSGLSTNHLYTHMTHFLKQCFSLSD
experimentalDetails: FAP inhibition assay (recombinant enzyme, Z-Gly-Pro-AMC substrate)
Format: biochemical
statedConditions: Table 4

molecule="CC1(C)C(/C=C/C2=C(Oc3ccc(S(=O)(=O)O)cc3)C(=C/C=C3/N(CCCCS(=O)(=O)O)c4ccc(S(=O)(=O)O)cc4C3(C)C)/CCC2)=[N+](CCCCCC(=O)N[C@@H](CCCCn2cc(CCC(=O)NCCCOc3ccc4nccc(C(=O)NCC(=O)N5CCC[C@H]5C#N)c4c3)nn2)C(=O)NCCNC(=O)CCC(C(=O)O)N2CCN(CC(=O)O)CCN(CC(=O)O)CCN(CC(=O)O)CC2)c2ccc(S(=O)(=O)[O-])cc21 (some centres unmarked)" targetsystem="FAP (Homo sapiens (Human), UniProt Q12884)" result="3.43 nM"

Ask: Kindly indicate its recorded IC50. Item: N#C[C@@H]1CCCN1C(=O)CNC(=O)c1ccnc2ccc(OCCCNC(=O)CCc3cn(CCCC[C@H](NC(=O)CN4CCN(CC(=O)O)CCN(CC(=O)O)CC4)C(=O)NCCCCCC(=O)N(CCCC[C@H](NC(=O)N[C@@H](CCC(=O)O)C(=O)O)C(=O)O)Cc4ccc(Br)cc4)nn3)cc12
Reply: 0.65 nM

====

targetSystem: FAP (Homo sapiens (Human), UniProt Q12884)
experimentalDetails: FAP inhibition assay (recombinant enzyme, Z-Gly-Pro-AMC substrate)
Type: biochemical
statedConditions: Table 3; read-out: FAP Ki
The following molecules are listed with their measured pKi values.
Reminder that pKi means the negative base-10 logarithm of the concentration expressed in mol/L.

molecule=N#C[C@@H]1CCCN1C(=O)CNC(=O)c1ccnc2cccc(F)c12 recordednumber=9.74

Ask: Supply pKi measured with FAP (Homo sapiens (Human), UniProt Q12884) for N#C[C@@H]1CCCN1C(=O)CNC(=O)c1ccnc2cc(F)ccc12 .
Reply: 9.36

Ask: Supply pKi measured with FAP (Homo sapiens (Human), UniProt Q12884) for N#C[C@@H]1CCCN1C(=O)CNC(=O)c1ccnc2ccc(OCCCNC(=O)CCc3cn(CCCC[C@H](NC(=O)c4ccc(F)nc4)C(=O)NCCNC(=O)CCC(C(=O)O)N4CCN(CC(=O)O)CCN(CC(=O)O)CCN(CC(=O)O)CC4)nn3)cc12 (some centres unmarked) .
Reply: 10.15

Ask: Supply pKi measured with FAP (Homo sapiens (Human), UniProt Q12884) for N#C[C@@H]1CCCN1C(=O)CNC(=O)c1ccnc2ccc(OCCCNC(=O)[C@@H](CC(=O)O)NC(=O)[C@@H](CC(=O)O)NC(=O)c3cccc(F)n3)cc12 .
Reply: 9.62

Ask: Supply pKi measured with FAP (Homo sapiens (Human), UniProt Q12884) for N#C[C@@H]1CCCN1C(=O)CNC(=O)c1c(F)cnc2ccccc12 .
Reply: 7.35
